Tested on: adult S. mansoni worms
MEASUREMENT_NOTES: Ex vivo adult S. mansoni phenotypic screen (descriptors and severity scores)
Design: species or system Schistosoma mansoni
CONDITION_INFO: 10 μM compound, 5 h; maximum score 4
Overview of reported Severity scores 5 h across a group of molecules:
Lab note: record the figure alone, no unit after it.

MOLECULE	MEASUREMENT
CC(C)Oc1ccc2c(-c3ccnc(Nc4ccc(N5CCN(C)CC5)cc4)n3)cnn2n1 [GW696155]	3
NC(=O)Nc1sc(-c2ccc(F)cc2)cc1C(N)=O [GW789449]	0
Nc1nc(N)c2[nH]c(-c3ccccc3)nc2n1 [SKF-12778]	0
Nc1n[nH]c2cnc(-c3ccccc3)cc12 [SB-642124]	0
CN(C)CCNS(=O)(=O)c1ccc(-c2ccnc3[nH]ccc23)cc1 [GSK977620]	0

Now for the molecule whose Severity scores 5 h we want.
Please fill in: Severity scores 5 h reported for CNC(=O)c1ccccc1Nc1nc(Nc2cccc(CS(C)(=O)=O)c2)ncc1C [GSK1520489] = 1

----------
Tested on: adult S. mansoni worms
MEASUREMENT_NOTES: Ex vivo adult S. mansoni phenotypic screen (descriptors and severity scores)
Parameters: species or system Schistosoma mansoni
CONDITION_INFO: 10 μM compound, 24 h; maximum score 4
Measured Severity scores 24 h accompanies every entry in the list below.
Response field accepts a number only; no unit should be typed.

Look over these answered cases.
SMILES_TEXT	MEASURED_PROPERTY	MEASUREMENT
NC(=O)Nc1sc(-c2ccc(F)cc2)cc1C(N)=O	Severity scores 24 h	0
Nc1nc(N)c2[nH]c(-c3ccccc3)nc2n1	Severity scores 24 h	0
CNC(=O)c1ccccc1Nc1nc(Nc2cccc(CS(C)(=O)=O)c2)ncc1C	Severity scores 24 h	1
CN(C)CCNS(=O)(=O)c1ccc(-c2ccnc3[nH]ccc23)cc1	Severity scores 24 h	0

Entry under test: CC(C)Oc1ccc2c(-c3ccnc(Nc4ccc(N5CCN(C)CC5)cc4)n3)cnn2n1 . Its Severity scores 24 h was 4

----------
Test system: adult S. mansoni worms
MEASUREMENT_NOTES: Ex vivo adult S. mansoni phenotypic screen (descriptors and severity scores)
Design: species or system Schistosoma mansoni
CONDITION_INFO: 10 μM compound, 5 h, ex vivo adult worms
MEASURED_PROPERTY: Descriptors 5 h

Example cases with answers are listed next.
MOLECULE	MEASUREMENT
Nc1n[nH]c2cnc(-c3ccccc3)cc12 [SB-642124]	none
CS(=O)(=O)Nc1ccc(-c2ccnc3[nH]ccc23)cc1 [GSK993273]	none
Cc1cccc(Nc2nc(N[C@H]3CCCC[C@H]3N)ncc2C(N)=O)c1 [GSK986310]	S
NC(=O)Nc1sc(-c2ccc(F)cc2)cc1C(N)=O [GW789449]	none
CN(C)CCNS(=O)(=O)c1ccc(-c2ccnc3[nH]ccc23)cc1 [GSK977620]	none

Summary: NCCNS(=O)(=O)c1ccc(-c2ccnc3[nH]ccc23)cc1 [GSK977617] , adult S. mansoni worms, Descriptors 5 h = none

Cc1n[nH]c2cc(Nc3ccnc(Nc4cccc(CN5CCOCC5)c4)n3)ccc12 [GW682569] on adult S. mansoni worms gives Descriptors 5 h = none

# Cc1cccc(Nc2nc(NCCN)ncc2C(N)=O)c1 [GSK1292139] with adult S. mansoni worms: Descriptors 5 h is none

Entry Nc1nc(N)c2[nH]c(-c3ccccc3)nc2n1 [SKF-12778] : Descriptors 5 h on adult S. mansoni worms = none

// Descriptors 5 h (adult S. mansoni worms) for CNC(=O)c1ccccc1Nc1nc(Nc2cccc(CS(C)(=O)=O)c2)ncc1C [GSK1520489] = unc

// provenance: paper PMC9661718
